target: EGFR (Homo sapiens, UniProt P00533); construct: endogenous in cells; host or cells: A431 cells (ATCC CRL-1555); test: EGFR in-cell Western (ICW) screening protocol; type: cell-based; set-up: unit not given here; settings: re-test
Sequence (P00533 25-1210): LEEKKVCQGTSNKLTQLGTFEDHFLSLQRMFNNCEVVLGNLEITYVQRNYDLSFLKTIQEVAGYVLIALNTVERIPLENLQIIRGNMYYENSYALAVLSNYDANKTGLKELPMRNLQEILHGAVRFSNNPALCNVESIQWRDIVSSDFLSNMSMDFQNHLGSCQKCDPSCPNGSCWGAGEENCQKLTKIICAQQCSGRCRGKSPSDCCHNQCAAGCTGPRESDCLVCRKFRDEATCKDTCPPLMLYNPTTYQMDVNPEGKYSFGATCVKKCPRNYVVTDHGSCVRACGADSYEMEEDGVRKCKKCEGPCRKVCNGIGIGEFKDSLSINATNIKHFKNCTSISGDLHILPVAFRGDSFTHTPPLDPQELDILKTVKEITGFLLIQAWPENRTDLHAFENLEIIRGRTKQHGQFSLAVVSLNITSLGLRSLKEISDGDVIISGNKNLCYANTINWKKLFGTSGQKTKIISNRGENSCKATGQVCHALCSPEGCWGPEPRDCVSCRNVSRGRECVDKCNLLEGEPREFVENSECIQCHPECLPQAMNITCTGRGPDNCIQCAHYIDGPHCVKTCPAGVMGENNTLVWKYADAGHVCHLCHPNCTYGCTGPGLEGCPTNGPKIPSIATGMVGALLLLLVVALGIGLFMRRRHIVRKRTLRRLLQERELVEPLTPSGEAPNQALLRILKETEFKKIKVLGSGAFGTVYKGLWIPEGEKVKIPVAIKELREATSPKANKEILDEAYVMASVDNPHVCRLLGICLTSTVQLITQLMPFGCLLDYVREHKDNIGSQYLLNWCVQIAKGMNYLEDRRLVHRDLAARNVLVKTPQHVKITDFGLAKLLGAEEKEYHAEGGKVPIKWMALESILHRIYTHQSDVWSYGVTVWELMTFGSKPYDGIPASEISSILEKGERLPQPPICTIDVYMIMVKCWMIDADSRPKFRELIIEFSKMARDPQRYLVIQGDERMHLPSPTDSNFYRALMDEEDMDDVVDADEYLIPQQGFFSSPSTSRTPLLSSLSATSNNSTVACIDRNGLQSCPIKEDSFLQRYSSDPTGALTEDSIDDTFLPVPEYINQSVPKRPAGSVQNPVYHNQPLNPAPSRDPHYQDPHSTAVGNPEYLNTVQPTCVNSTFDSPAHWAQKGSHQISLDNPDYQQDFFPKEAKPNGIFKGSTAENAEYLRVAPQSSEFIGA
Quantity Measured: ICW Re-Test

{"columns": ["Molecule", "Target Under Test", "Quantity Measured", "Recorded Measurement"],
 "data": [
  ["COc1ccc(C(Nc2cc(C)ccn2)c2ccc3cccnc3c2O)cc1O (stereo not drawn)", "EGFR (Homo sapiens, UniProt P00533)", "ICW Re-Test", 41.95],
  ["CCOc1cc(C(Nc2cccnc2)c2ccc3cccnc3c2O)ccc1O (stereo not drawn)", "EGFR (Homo sapiens, UniProt P00533)", "ICW Re-Test", 57],
  ["CCOc1ccc(C(Nc2cc(C)ccn2)c2ccc3cccnc3c2O)cc1OC (stereo not drawn)", "EGFR (Homo sapiens, UniProt P00533)", "ICW Re-Test", 30.11]
]}

[1] COc1cc(C(Nc2ccccn2)c2cc(Cl)c3cccnc3c2O)cc(Br)c1O (stereo not drawn)
[2] Cc1ccc(NC(c2ccccc2)c2ccc3cccnc3c2O)cc1 (stereo not drawn)
[3] Oc1c(C(Nc2ccc(F)cc2)c2ccncc2)ccc2cccnc12 (stereo not drawn)
Exercise: Put the molecules in ascending order of ICW Re-Test. Reply with the item labels sorted in the order that was asked for.
Solution: 3, 1, 2
(3: 20.64, 1: 41.13, 2: 69.21)
